Molecular target: DQ8 (Homo sapiens, UniProt P01909+P01920, A209T/A45G/C70Q/D89A/DUP78-78/E183D/E77G/F237L/G63E/H199R/I129T/K197E/L178F/L74F/L98V/Q57E/Q76R/S185I/S97I/T217I/T49S/V73L/Y58L)
Test: Competitive binding assay B:9-23 to DQ8
Conditions: >100 uM means some effect at 100 uM but not 50% inhibition; < means lower concentrations not used
quantity.name: Competitive Binding Assay B:9-23 to DQ8 (IC50)

- compound: "NC(=O)N/N=C/C1CNCCN1 (stereo not drawn)"
  result: "No inhibition"
- compound: "C1CCCNCCNCCNCC1"
  result: "No inhibition"
- compound: "N=C(N)c1ccc(/C=C/c2ccc(C(=N)N)cc2)cc1"
  result: "No inhibition"
- compound: "[H]/N=C(\\N)NCCC(N)C(=O)O (stereo not drawn)"
  result: "No inhibition"
- compound: "NC1CC2NC3CCCCC3NC2CC1N (stereo not drawn)"
  result: "No inhibition"

Alright, here's another compound for you.
The recorded Competitive Binding Assay B:9-23 to DQ8 (IC50) for O=C1CN(C2CCCCC2N2CC(=O)NC(=O)C2)CC(=O)N1 (stereo not drawn) is No inhibition

====

Test system: BDC 8-1.1α1 anti-B:9-23 T cell hybridoma
Assay: T cell stimulation assay, B:9-23 activated TCR 8-1.1α1
Type: cell-based
Conditions: Mus musculus, read-out: IC50 for anti-B:9-23 TCRs 8-1.1α1
quantity.name: IC50 (µM)
Hi! Could you send only the number? It should be in µM, unit omitted.

Record O=S1(=O)N2CN3CCN(C2)N1C3 / BDC 8-1.1α1 anti-B:9-23 T cell hybridoma, IC50 recorded as 28.4

====

Molecular target: DQ8 (Homo sapiens, UniProt P01909+P01920, A209T/A45G/C70Q/D89A/DUP78-78/E183D/E77G/F237L/G63E/H199R/I129T/K197E/L178F/L74F/L98V/Q57E/Q76R/S185I/S97I/T217I/T49S/V73L/Y58L)
Experiment: Competitive binding assay B:9-23 to DQ8
Conditions: >100 uM means some effect at 100 uM but not 50% inhibition; < means lower concentrations not used
quantity.name: Competitive Binding Assay B:9-23 to DQ8 (IC50)

- compound: "NC(Cn1ccc(=O)c(O)c1)C(=O)O (stereo not drawn) [p4:14]"
  result: "No inhibition"
- compound: "NC1(COS(=O)(=O)O)CCN1 (stereo not drawn) [p6:30]"
  result: "No inhibition"
- compound: "CN(Cc1ccccc1)Cn1ccnc1 [p4:6]"
  result: "No inhibition"
